# Tested on: CP201
# test.method.notes: qHTS profiling for inhibitors of Plasmodium falciparum proliferation (AID 504749); note: nearly all actives have a fitted effect of over 60% in size
# experimental.parameters: P. falciparum in erythrocytes, SYBR Green DNA, 72 h; series mostly up to 28.7 µM
Results filed as inconclusive are left out. Calls of active or inactive are those of the source. Calls come from the whole dose curve; as a rule, active = well fitted inhibition curve with a large enough effect; inconclusive = small, poorly fitted or top-dose-only effect; inactive = flat fitted curve, though single readings scatter.
Response enum: Y for active, N for inactive

Prompt line: Which outcome was entered for the compound C=C(CC[C@@H](C)[C@H]1CCC2[C@]1(C)CC[C@]13C[C@@]14CCC(OC(=O)/C=C/c1ccc(O)c(OC)c1)C(C)(C)[C@@H]4CC[C@@]23C)C(C)C (stereo not given in full) in this test?
Response line: N

Prompt line: Which outcome was entered for the compound CN[C@H](C)CCC=C(C)C in this test?
Response line: Y

Prompt line: Which outcome was entered for the compound Oc1cc2cc(CCN3CCN(c4nsc5ccccc45)CC3)c(Cl)cc2[nH]1 in this test?
Response line: N

Prompt line: Which outcome was entered for the compound C/C=C\C[C@H](C)[C@H](O)[C@H]1C(=O)N[C@@H](CC)C(=O)N(C)CC(=O)N(C)[C@@H](CC(C)C)C(=O)N[C@@H](C(C)C)C(=O)N(C)[C@@H](CC(C)C)C(=O)N[C@@H](C)C(=O)N[C@@H](C)C(=O)N(C)[C@@H](CC(C)C)C(=O)N(C)[C@@H](CC(C)C)C(=O)N(C)[C@@H](C(C)C)C(=O)N1C in this test?
Response line: Y

Prompt line: Which outcome was entered for the compound CC1(C)OC[C@@H]2O[C@@]3(C(=O)O)OC(C)(C)O[C@@H]3[C@@H]2O1 in this test?
Response line: N

Prompt line: Which outcome was entered for the compound C[n+]1c2cc(N)ccc2cc2ccc(N)cc21 in this test?
Response line: Y

Prompt line: Which outcome was entered for the compound CC1(C)CC1C(=O)N/C(=C/CCCCSCC(N)C(=O)O)C(=O)O (stereo not given) in this test?
Response line: N

Prompt line: Which outcome was entered for the compound CC1(C)O[C@@H]2C[C@H]3[C@@H]4CCC5=CC(=O)C=C[C@]5(C)[C@H]4C(O)C[C@]3(C)[C@]2(C(=O)CO)O1 (stereo not given in full) in this test?
Response line: N

Prompt line: Which outcome was entered for the compound O=C(O)Cc1sc(-c2ccc(Cl)cc2)nc1-c1ccccc1 in this test?
Response line: N

Prompt line: Which outcome was entered for the compound Nc1nc(Cl)nc2c1ncn2[C@@H]1O[C@H](CO)[C@H](O)C1F (stereo not given in full) in this test?
Response line: N

Prompt line: Which outcome was entered for the compound Nc1nc(/C(=C/CC(=O)O)C(=O)NC2C(=O)N3C(C(=O)O)=CCSC23)cs1 (stereo not given) in this test?
Response line: N

Prompt line: Which outcome was entered for the compound O=C1Oc2ccccc2C(=O)C1C(CC(O)c1ccc(-c2ccc(Br)cc2)cc1)c1ccccc1 (stereo not given) in this test?
Response line: N

Prompt line: Which outcome was entered for the compound C/C(=C(/CCOC(=O)C(C)C)SS/C(CCOC(=O)C(C)C)=C(\C)N(C=O)Cc1cnc(C)nc1N)N(C=O)Cc1cnc(C)nc1N in this test?
Response line: N

Prompt line: Which outcome was entered for the compound OCC1O[C@@H](O[C@@H]2C(CO)OC(O)C(O)C2O)C(O)C(O)C1O (stereo not given in full) in this test?
Response line: N

Prompt line: Which outcome was entered for the compound CC(=O)OCC(=O)[C@@]1(O)CCC2C3C[C@H](C)C4=CC(=O)C=CC4(C)C3C(O)CC21C (stereo not given in full) in this test?
Response line: N

Prompt line: Which outcome was entered for the compound CCCCN1CC(O)C(O)C(O)C1CO (stereo not given) in this test?
Response line: N

Prompt line: Which outcome was entered for the compound CC1OC(OCC2OC(Oc3c(-c4ccc(OCCO)c(OCCO)c4)oc4cc(OCCO)cc(O)c4c3=O)C(O)C(O)C2O)[C@@H](O)C(O)C1O (stereo not given in full) in this test?
Response line: N

Prompt line: Which outcome was entered for the compound CC1(C)C2CC[C@]1(C)[C@@H](O)C2 in this test?
Response line: N

Prompt line: Which outcome was entered for the compound CCCCCOC(=O)Nc1nc(=O)n(C2O[C@H](C)[C@@H](O)[C@@H]2O)cc1F (stereo not given in full) in this test?
Response line: N

Prompt line: Which outcome was entered for the compound C[C@@H]1C(SC2Cn3cnc[n+]3C2)=C(C(=O)[O-])N2C(=O)[C@H]([C@@H](C)O)[C@@H]12 (stereo not given in full) in this test?
Response line: N

Origin of the recorded values: PubChem BioAssay (NCATS)
